- System: SF-539 CNS
- experiment-summary: NCI tumour cell line growth inhibition, 48 h
value-kind: log10 of TGI (log10 of the value in µM)

[
  {
    "molecule": "COc1ccc(Nc2nccc(Nc3ccc4[nH]ncc4c3)n2)cc1",
    "tested-on": "SF-539 CNS",
    "log10 of TGI": 1.23
  },
  {
    "molecule": "O=C1/C(=C/c2ccc(Cl)cc2)COc2ccc(O)cc21",
    "tested-on": "SF-539 CNS",
    "log10 of TGI": 0.55
  },
  {
    "molecule": "CN(C)C=Nc1ccc2[nH]c3ccccc3c2c1",
    "tested-on": "SF-539 CNS",
    "log10 of TGI": 1.70
  },
  {
    "molecule": "CC(C)C1=C(O)C2=C(C(=O)C1=O)C1(C)CCCC(C)(C)C1CC2O (stereo unspecified)",
    "tested-on": "SF-539 CNS",
    "log10 of TGI": 1.72
  },
  {
    "molecule": "CCOC(=O)/C=C(\\C(=O)OCC)n1ccc(=O)n(Cc2cnnn2COCCOC(C)=O)c1=O",
    "tested-on": "SF-539 CNS",
    "log10 of TGI": 0.75
  },
  {
    "molecule": "C=C1CC(Cn2ccc(=O)[nH]c2=O)(c2ccc(OC)cc2)OC1=O (stereo unspecified)",
    "tested-on": "SF-539 CNS",
    "log10 of TGI": 1.61
  },
  {
    "molecule": "COC(=O)c1c(OC(C)=O)ccc2c1c1c(OC(C)=O)c3ccccc3c(OC(C)=O)c1n2C",
    "tested-on": "SF-539 CNS",
    "log10 of TGI": 1.79
  }
]
